Every entry's value here was drawn from patent US20260083865A1.

IC50 for assorted compounds
- TARGET_OR_TEST_SYSTEM: PSMA-expressing C4-2 cells (Homo sapiens)
- Construct: PSMA-expressing C4-2 cells (ATCC, Cat. No. CRL-3314) were cultured in RPMI-1640; host or cells: C4-2 cells
- Sequence (Q04609 whole entry): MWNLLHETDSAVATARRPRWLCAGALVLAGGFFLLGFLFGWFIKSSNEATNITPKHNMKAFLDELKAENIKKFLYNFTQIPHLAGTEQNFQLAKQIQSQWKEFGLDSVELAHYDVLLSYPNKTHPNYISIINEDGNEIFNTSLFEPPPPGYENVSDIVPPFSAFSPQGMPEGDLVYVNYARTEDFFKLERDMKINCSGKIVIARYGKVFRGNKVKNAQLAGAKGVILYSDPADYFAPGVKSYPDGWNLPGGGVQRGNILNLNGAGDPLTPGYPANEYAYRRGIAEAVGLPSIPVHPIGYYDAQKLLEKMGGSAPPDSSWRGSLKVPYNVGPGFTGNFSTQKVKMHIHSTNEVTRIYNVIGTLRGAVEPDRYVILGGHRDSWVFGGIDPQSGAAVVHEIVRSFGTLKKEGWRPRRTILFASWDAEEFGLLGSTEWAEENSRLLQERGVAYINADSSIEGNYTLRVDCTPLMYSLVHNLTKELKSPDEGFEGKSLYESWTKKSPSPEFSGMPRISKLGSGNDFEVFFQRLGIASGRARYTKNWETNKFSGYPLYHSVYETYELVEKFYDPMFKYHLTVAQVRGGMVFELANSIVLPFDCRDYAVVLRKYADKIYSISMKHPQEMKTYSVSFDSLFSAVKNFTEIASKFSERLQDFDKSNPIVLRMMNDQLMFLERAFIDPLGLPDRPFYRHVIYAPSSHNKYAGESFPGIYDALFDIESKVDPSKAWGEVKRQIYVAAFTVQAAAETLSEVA
- PROCEDURE_TEXT: FACS binding assay (competition with 50 nM PSM-0183)
- TEST_SETTINGS: FACS binding, C4-2 cells, competition with 50 nM PSM-0183; category; read-out: pIC50 [C4-2] CAT (converted)
- Protocol: In order to determine binding of compounds according to the present invention to PSMA-expressing cells, a FACS binding assay was established. PSMA-expressing C4-2 cells (ATCC, Cat. No. CRL-3314) were cultured in RPMI-1640 (Pan Biotech, Cat. No. P04-18050) including 10% fetal calf serum (Biochrom) and 100 U/ml penicillin and 100 μg/mL streptomycin (Sigma, Cat. No. P0781). […]
Numbered stars: 1 amine (or outer) side, 2 acyl side, 3 side chain; on linkers, the order of the positions; unused ones are H or OH. Bridge positions count the residues as written; N and C are the ends. Square brackets hold non-standard residues; d marks the D form. Peptide text beside a SMILES is read from it. * marks the point of attachment. X3 = O=C(O)CN1CCN(CC(=O)O)CCN(CC(=O)NCCCOCCOCCOCCCN*)CCN(CC(=O)O)CC1; X2 = O=C(O)CN1CCN(CC(=O)O)CCN([C@H](CCC(=O)*)C(=O)O)CCN(CC(=O)O)CC1; DOTA = O=C(O)CN1CCN(CC(=O)O)CCN(CC(=O)*)CCN(CC(=O)O)CC1; Arg(NO2) = N=C(NCCC[C@H](N)C(=O)O)N[N+](=O)[O-]; Phe(3-Cl) = N[C@@H](Cc1cccc(Cl)c1)C(=O)O; Phe(4-Cl) = N[C@@H](Cc1ccc(Cl)cc1)C(=O)O; Arg(Me) = CNC(=N)NCCC[C@H](N)C(=O)O; Lys(iPr) = CC(C)NCCCC[C@H](N)C(=O)O; 2Pal = N[C@@H](Cc1ccccn1)C(=O)O; X1 = O=C(CC1CCN([*:1])CC1)[*:2]; Cit = NC(=O)NCCC[C@H](N)C(=O)O; Lys(Me) = CNCCCC[C@H](N)C(=O)O; Suc = O=C(CCC(=O)[*:2])[*:1]; Tle = CC(C)(C)[C@H](N)C(=O)O; Deg = CCC(N)(CC)C(=O)O; Aib = CC(C)(N)C(=O)O; CO = O=C([*:1])[*:2]; NHBu = CCCCN*

Examples with their reported IC50 follow.
CCCCNC(=O)N[C@H](C(=O)NC(C)(C)C(=O)N[C@@H](Cc1cccc(Cl)c1)C(=O)N[C@H]1CSSC[C@@H](C(=O)N[C@H](C(=O)N[C@H](C(=O)N2CCC(CC(=O)N[C@H](CCCCNC(=O)CN3CCN(CC(=O)O)CCN(CC(=O)O)CCN(CC(=O)O)CC3)C(N)=O)CC2)[C@@H](C)O)C(C)(C)C)NC(=O)[C@H](CC(N)=O)NC(=O)C(C)(C)NC(=O)[C@H](CCCNC(N)=O)NC(=O)[C@H](CCCCN)NC1=O)[C@@H](C)O [PSM-0207] ({NHBu-CO}-T[Aib][Phe(3-Cl)]CK[Cit][Aib]NC[Tle]T[X1][dK](DOTA)-NH2; disulfide 4-9); < 200 nM
CNCCCC[C@@H]1NC(=O)[C@@H](NC(=O)[C@H](Cc2ccc(Cl)cc2)NC(=O)C(C)(C)NC(=O)[C@@H](NC(=O)CC2CCN(C(=O)CN3CCN(CC(=O)O)CCN(CC(=O)O)CCN(CC(=O)O)CC3)CC2)[C@@H](C)O)CSSC[C@@H](C(=O)N[C@H](C(=O)N[C@H](C(N)=O)[C@@H](C)O)C(C)(C)C)NC(=O)[C@H](CC(N)=O)NC(=O)C(C)(C)NC(=O)[C@H](CCCNC(=N)N[N+](=O)[O-])NC1=O [PSM-0254] ({DOTA}-[X1]T[Aib][Phe(4-Cl)]C[Lys(Me)][Arg(NO2)][Aib]NC[Tle]T-NH2; disulfide 5-10); < 200 nM
CNC(=N)NCCC[C@@H]1NC(=O)[C@H](CCCCNC(C)C)NC(=O)[C@@H](NC(=O)[C@H](Cc2ccc(Cl)cc2)NC(=O)C(C)(C)NC(=O)[C@@H](NC(=O)CC2CCN(C(=O)CN3CCN(CC(=O)O)CCN(CC(=O)O)CCN(CC(=O)O)CC3)CC2)[C@@H](C)O)CSSC[C@@H](C(=O)N[C@H](C(=O)N[C@H](C(N)=O)[C@@H](C)O)C(C)(C)C)NC(=O)[C@H](CC(N)=O)NC(=O)C(C)(C)NC1=O [PSM-0244] ({DOTA}-[X1]T[Aib][Phe(4-Cl)]C[Lys(iPr)][Arg(Me)][Aib]NC[Tle]T-NH2; disulfide 5-10); < 200 nM
CCC(CC)(NC(=O)[C@@H](NC(C)=O)[C@@H](C)O)C(=O)N[C@@H](Cc1ccccc1)C(=O)N[C@H]1CSSC[C@@H](C(=O)N[C@H](C(=O)N[C@H](C(N)=O)[C@@H](C)O)C(C)(C)C)NC(=O)[C@H](CC(N)=O)NC(=O)C(C)(C)NC(=O)[C@H](CCCNC(=N)N)NC(=O)[C@H](CCCCN)NC1=O [PSM-0187] (Ac-T[Deg]FCKR[Aib]NC[Tle]T-NH2; disulfide 4-9); < 200 nM
CC(C)C[C@H](NC(=O)[C@@H]1CSSC[C@H](NC(=O)[C@H](Cc2ccccc2)NC(=O)[C@H](C)NC(=O)[C@@H](NC(=O)CCC(=O)NCCCOCCOCCOCCCNC(=O)CN2CCN(CC(=O)O)CCN(CC(=O)O)CCN(CC(=O)O)CC2)[C@@H](C)O)C(=O)N[C@@H](CCCCN)C(=O)N[C@@H](CCCNC(=N)N)C(=O)N[C@@H](C)C(=O)N[C@@H](CC(N)=O)C(=O)N1)C(=O)N[C@H](C(=O)N[C@@H](CC(=O)O)C(N)=O)[C@@H](C)O [PSM-0251] ({X3-Suc}-TAFCKRANCLTD-NH2; disulfide 4-9); 200 to 1260 nM
C[C@@H](O)[C@H](NC(=O)[C@@H](NC(=O)[C@@H]1CSSC[C@H](NC(=O)[C@H](Cc2ccccc2)NC(=O)C(C)(C)NC(=O)[C@@H](NC(=O)CCC(=O)NCCCOCCOCCOCCCNC(=O)CN2CCN(CC(=O)O)CCN(CC(=O)O)CCN(CC(=O)O)CC2)[C@@H](C)O)C(=O)N[C@@H](CCCCN)C(=O)N[C@@H](CCCNC(=N)N)C(=O)NC(C)(C)C(=O)N[C@@H](CC(N)=O)C(=O)N1)C(C)(C)C)C(N)=O [PSM-0259] ({X3-Suc}-T[Aib]FCKR[Aib]NC[Tle]T-NH2; disulfide 4-9); < 200 nM

Indicate the recorded IC50 value for this compound: C[C@@H](O)[C@H](NC(=O)[C@@H](NC(=O)[C@@H]1CSSC[C@H](NC(=O)[C@H](Cc2ccccc2)NC(=O)C(C)(C)NC(=O)[C@@H](NC(=O)CC2CCN(C(=O)CC[C@H](C(=O)O)N3CCN(CC(=O)O)CCN(CC(=O)O)CCN(CC(=O)O)CC3)CC2)[C@@H](C)O)C(=O)N[C@@H](CCCCN)C(=O)N[C@@H](CCCNC(=N)N)C(=O)NC(C)(C)C(=O)N[C@@H](CC(N)=O)C(=O)N1)C(C)(C)C)C(N)=O [PSM-0218] (X2-[X1]T[Aib]FCKR[Aib]NC[Tle]T-NH2; disulfide 5-10)
< 200 nM

Read off the recorded IC50 for CNCCCC[C@@H]1NC(=O)[C@@H](NC(=O)[C@H](Cc2ccccn2)NC(=O)C(C)(C)NC(=O)[C@@H](NC(=O)CC2CCN(C(=O)CN3CCN(CC(=O)O)CCN(CC(=O)O)CCN(CC(=O)O)CC3)CC2)[C@@H](C)O)CSSC[C@@H](C(=O)N[C@H](C(=O)N[C@H](C(N)=O)[C@@H](C)O)C(C)(C)C)NC(=O)[C@H](CC(N)=O)NC(=O)C(C)(C)NC(=O)[C@H](CCCNC(=N)NC)NC1=O [PSM-0257] ({DOTA}-[X1]T[Aib][2Pal]C[Lys(Me)][Arg(Me)][Aib]NC[Tle]T-NH2; disulfide 5-10)
200 to 1260 nM
